# target desc: KDR (human, UniProt P35968 20-1356)
# Sequence (P35968 20-1356): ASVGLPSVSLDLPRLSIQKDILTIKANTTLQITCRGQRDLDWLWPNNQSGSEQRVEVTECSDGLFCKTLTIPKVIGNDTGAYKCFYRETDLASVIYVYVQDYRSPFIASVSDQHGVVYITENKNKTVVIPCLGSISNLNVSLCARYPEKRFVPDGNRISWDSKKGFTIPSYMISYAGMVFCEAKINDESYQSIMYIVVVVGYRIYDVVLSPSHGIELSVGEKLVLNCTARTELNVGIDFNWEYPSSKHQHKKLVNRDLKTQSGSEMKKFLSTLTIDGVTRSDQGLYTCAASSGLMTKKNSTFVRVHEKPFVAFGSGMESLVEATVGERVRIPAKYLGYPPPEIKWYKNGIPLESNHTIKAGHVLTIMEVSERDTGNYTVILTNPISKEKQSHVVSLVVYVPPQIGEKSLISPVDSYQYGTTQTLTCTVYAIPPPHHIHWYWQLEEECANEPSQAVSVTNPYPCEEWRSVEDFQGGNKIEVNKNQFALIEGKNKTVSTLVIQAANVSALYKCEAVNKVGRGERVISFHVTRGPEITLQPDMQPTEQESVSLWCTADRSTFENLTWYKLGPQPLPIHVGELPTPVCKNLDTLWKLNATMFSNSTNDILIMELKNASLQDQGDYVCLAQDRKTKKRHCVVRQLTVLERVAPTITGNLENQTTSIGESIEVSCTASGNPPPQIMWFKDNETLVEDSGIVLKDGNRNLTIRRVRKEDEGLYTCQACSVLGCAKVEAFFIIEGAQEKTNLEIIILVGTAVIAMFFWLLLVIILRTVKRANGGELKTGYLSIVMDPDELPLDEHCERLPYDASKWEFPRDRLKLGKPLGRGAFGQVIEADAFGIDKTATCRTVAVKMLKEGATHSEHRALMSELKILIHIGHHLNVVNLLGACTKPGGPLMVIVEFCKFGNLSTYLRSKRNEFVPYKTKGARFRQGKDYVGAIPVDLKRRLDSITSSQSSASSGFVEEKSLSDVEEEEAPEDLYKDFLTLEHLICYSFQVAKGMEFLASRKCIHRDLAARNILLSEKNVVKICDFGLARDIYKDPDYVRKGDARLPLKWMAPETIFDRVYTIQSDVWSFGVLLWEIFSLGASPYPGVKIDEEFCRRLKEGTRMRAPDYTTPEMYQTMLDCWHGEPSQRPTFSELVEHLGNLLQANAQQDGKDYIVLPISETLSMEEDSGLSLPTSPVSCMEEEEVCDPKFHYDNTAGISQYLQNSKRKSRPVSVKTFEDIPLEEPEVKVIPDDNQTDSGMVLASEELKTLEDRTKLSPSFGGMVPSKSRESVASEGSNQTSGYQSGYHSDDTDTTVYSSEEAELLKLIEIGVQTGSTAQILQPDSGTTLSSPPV
# procedure summary: cell-based or functional assay
Measured Activity at 133 nM (% Inhibition), 1-hour Pre-incubation at 4° C., Average of individual entries
metric name: Activity at 133 nM (% Inhibition), 1-hour Pre-incubation at 4° C., Average (%)

• 33D5 (antibody, V domains shown) VH: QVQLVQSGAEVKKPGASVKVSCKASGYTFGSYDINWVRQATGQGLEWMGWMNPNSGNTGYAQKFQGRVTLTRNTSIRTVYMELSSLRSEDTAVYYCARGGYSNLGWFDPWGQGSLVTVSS VL: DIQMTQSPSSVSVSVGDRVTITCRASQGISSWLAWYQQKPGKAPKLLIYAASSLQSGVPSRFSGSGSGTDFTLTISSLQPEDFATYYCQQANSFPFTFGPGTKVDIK = 49
• 30F6 (antibody, V domains shown) VH: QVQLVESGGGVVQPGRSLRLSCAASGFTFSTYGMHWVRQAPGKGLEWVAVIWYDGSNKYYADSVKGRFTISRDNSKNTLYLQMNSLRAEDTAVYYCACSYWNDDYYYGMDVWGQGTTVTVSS VL: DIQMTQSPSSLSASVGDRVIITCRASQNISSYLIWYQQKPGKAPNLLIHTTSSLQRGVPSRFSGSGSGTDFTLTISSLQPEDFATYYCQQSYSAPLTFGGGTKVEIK = 84
• 31E11 (antibody, V domains shown) VH: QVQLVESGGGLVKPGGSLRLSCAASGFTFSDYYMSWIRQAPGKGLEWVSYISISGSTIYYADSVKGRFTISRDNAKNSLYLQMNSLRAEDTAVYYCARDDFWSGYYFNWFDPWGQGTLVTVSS VL: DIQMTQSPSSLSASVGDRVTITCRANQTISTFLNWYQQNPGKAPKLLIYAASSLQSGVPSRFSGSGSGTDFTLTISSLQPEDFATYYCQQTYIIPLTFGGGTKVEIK = 81
